EXPERIMENTAL_SYSTEM: Cytochrome P450 3A4 (Homo sapiens) (UniProt P08684)
Sequence (P08684 whole entry, looked up): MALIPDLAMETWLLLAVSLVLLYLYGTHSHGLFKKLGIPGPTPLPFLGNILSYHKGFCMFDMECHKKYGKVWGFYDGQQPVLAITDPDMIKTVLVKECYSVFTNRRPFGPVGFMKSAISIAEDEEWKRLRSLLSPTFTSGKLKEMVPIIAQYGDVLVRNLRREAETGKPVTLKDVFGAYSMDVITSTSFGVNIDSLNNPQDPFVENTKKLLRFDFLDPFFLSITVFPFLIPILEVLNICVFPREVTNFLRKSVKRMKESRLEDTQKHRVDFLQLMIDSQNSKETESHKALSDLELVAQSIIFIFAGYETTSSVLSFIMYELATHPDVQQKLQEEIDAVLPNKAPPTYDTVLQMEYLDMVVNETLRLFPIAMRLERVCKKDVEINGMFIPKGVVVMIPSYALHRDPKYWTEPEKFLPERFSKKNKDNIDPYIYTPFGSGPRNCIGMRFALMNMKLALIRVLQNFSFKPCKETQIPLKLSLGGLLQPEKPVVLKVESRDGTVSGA
PROCEDURE_DETAILS: qHTS Assay for Activators of Cytochrome P450 3A4 (AID 885); also: nearly all actives have a fitted effect of over 65% in size
CONDITIONS_USED: recombinant CYP3A4, Luciferin-PPXE luminescence, 60 min; series mostly up to 57.1 µM
The source made the active and inactive calls. Calls follow the shape of the dose curve; as a rule, active = well fitted activation curve with a large enough effect; inconclusive = small, poorly fitted or top-dose-only effect; inactive = no such curve, though single readings can be large or run the other way.
MEASUREMENT_KIND: activity change, positive = activation

{"columns": ["MOLECULE", "MEASUREMENT_KIND", "DATA_VALUE"],
 "data": [
  ["CC(C)CO/N=C1/C[C@@H](O)[C@@H](O)[C@@H]2[C@@H]3C(=O)N(Cc4ccccc4)C(=O)[C@H]3CC[C@H]12", "activity change, positive = activation", "-30.2% [at 11.4 µM] (inactive)"],
  ["CCC1=C(OC(=O)N(CC)CC)N2C(=O)OC(=NCCc3c[nH]c4ccccc34)[C@]2(Cc2ccccc2)[C@H]2C1=CC[C@H]1C(=O)N(C)C(=O)[C@H]12", "activity change, positive = activation", "inactive"],
  ["c1ccc(-c2ccc(CN3C[C@@H]4C(c5ccccc5)C5(c6cccnc6)CC4(C5)[C@H]3c3ccccc3)cc2)cc1 (stereo partly specified)", "activity change, positive = activation", "inactive"],
  ["CCC1=C(OC(=O)N(CC)CC)N2C(=O)OC(=NCCOC)[C@]2(C)[C@H]2C1=CC[C@H]1C(=O)N(CC(=O)OC)C(=O)[C@H]12", "activity change, positive = activation", "inactive"],
  ["Cc1ccc(CNC(=O)C2(CC(C)C)C=CCN2C(=O)c2ccccc2)o1 (stereo unspecified)", "activity change, positive = activation", "inactive"]
]}

Pending molecule:
Prompt: Please list activity change, positive = activation recorded for the molecule COc1ccc(OC2C=CC(c3ccccc3)OC2CO)c(C(C)(C)C)c1 (stereo unspecified)
Response: -79.5% [at 11.4 µM] (inactive)

###

PROCEDURE_DETAILS: qHTS assay for small molecule agonists of the antioxidant response element (ARE) signaling pathway (AID 651741); as to activation: % of control where 0% means no effect
CONDITIONS_USED: HepG2 ARE-bla reporter, beta-lactamase FRET ratio, 16 h; series mostly up to 96 µM
Inconclusive results are not listed. Active and inactive are the calls of the source. Calls follow the shape of the dose curve; as a rule, active = well fitted activation curve with a large enough effect in the signal ratio; inconclusive = small, poorly fitted or top-dose-only effect, or effect the other way, or a change in a side signal; inactive = flat fitted curve, though single readings scatter; the % refers to the signal ratio.
# output must be one of yes (1) (active), no (0) (inactive)

Prompt: Test call for this molecule, please: CCCCC(CC)COC(C)=O (stereo not drawn)
Response: no (0)

Prompt: Test call for this molecule, please: CC(=O)Nc1ccc(N=Nc2cc(C)ccc2O)cc1
Response: yes (1)

Prompt: Test call for this molecule, please: Cc1ccc2c(c1)C(=O)OC2=O
Response: no (0)

###

EXPERIMENTAL_SYSTEM: Peroxisome proliferator-activated receptor gamma (Homo sapiens)
PROCEDURE_DETAILS: qHTS assay for small molecule antagonists of peroxisome proliferator-activated receptor gamma signaling (AID 588537)
CONDITIONS_USED: HEK293 PPARg-UAS-bla, beta-lactamase ratio, antagonist mode; series mostly up to 76.8 µM
Inconclusive results are not listed. The source made the active and inactive calls. Calls follow the shape of the dose curve; as a rule, active = well fitted inhibition curve with a large enough effect in the signal ratio, with a control signal flat (not every such curve was filed as active); inconclusive = small, poorly fitted or top-dose-only effect, or effect the other way, or a change in a side signal; inactive = flat fitted curve, though single readings scatter; the % refers to the signal ratio.
# output must be one of yes for active, no for inactive

Prompt: Test call for this compound, please: C[C@]12CCC(=O)C=C1CC[C@@H]1[C@@H]2[C@@H](O)C[C@]2(C=O)[C@@H](C(=O)CO)CC[C@@H]12
Response: no

Prompt: Test call for this compound, please: O=C(O)C1(C(=O)Nc2ccc(Cl)cc2Cl)CC1
Response: yes

Prompt: Test call for this compound, please: CC(=O)c1c(C)c([N+](=O)[O-])c(C(C)(C)C)c([N+](=O)[O-])c1C
Response: no

Prompt: Test call for this compound, please: O=c1[nH]c(=O)c2[nH]cnc2[nH]1
Response: no

Prompt: Test call for this compound, please: CCC(C)(C)C1CCC(O)CC1 (stereo unspecified)
Response: no

Prompt: Test call for this compound, please: O=S(=O)(O)c1ccc(N=Nc2cc(S(=O)(=O)O)c3ccccc3c2O)c2ccccc12
Response: no

Prompt: Test call for this compound, please: O=C(O)c1cc2ccccc2cc1O
Response: no

Prompt: Test call for this compound, please: CCCCCCCC(=O)OC
Response: no

Prompt: Test call for this compound, please: CCCCCCC(O)CCCCCCCCCCC(=O)O (stereo unspecified)
Response: no

Prompt: Test call for this compound, please: O=C=NC1CCC(CC2CCC(N=C=O)CC2)CC1 (stereo unspecified)
Response: no

Prompt: Test call for this compound, please: C[Si]1(C)N[Si](C)(C)N[Si](C)(C)N1
Response: no

Prompt: Test call for this compound, please: CCCCCCCCCCCC[N+](C)(C)[O-]
Response: no

Prompt: Test call for this compound, please: Nc1cc(Cl)c(O)c(Cl)c1
Response: no

Prompt: Test call for this compound, please: NC(=O)Cc1cccc2ccccc12
Response: no

Prompt: Test call for this compound, please: CCCCCCCC/C=C\CCCCCCCC(=O)OC
Response: no

Prompt: Test call for this compound, please: CCCCCCCCCC(=O)OC
Response: no

Prompt: Test call for this compound, please: CC(C)(C)c1cc(C(C)(C)C)c(O)c(C(C)(C)C)c1
Response: no

Prompt: Test call for this compound, please: BrC1CCC(Br)C(Br)CCC(Br)C(Br)CCC1Br (stereo unspecified)
Response: no

Prompt: Test call for this compound, please: CCOC(=O)C(C)Oc1ccc(Oc2nc3ccc(Cl)cc3o2)cc1 (stereo unspecified)
Response: no

Prompt: Test call for this compound, please: C=C(C)C(=O)OCCOCCOCCOC(=O)C(=C)C
Response: no

Prompt: Test call for this compound, please: COC(=O)c1ccc(C(=O)OC)cc1
Response: no

Prompt: Test call for this compound, please: CCCCCCCCCCCC[N+](C)(C)C
Response: no

Prompt: Test call for this compound, please: CCc1cccc(C)c1N(C(=O)CS(=O)(=O)O)[C@@H](C)COC
Response: no

Prompt: Test call for this compound, please: CCCCCCCC[Si](Cl)(Cl)Cl
Response: no

Prompt: Test call for this compound, please: CCCCCCCC/C=C\CCCCCCCCCCCCC
Response: no

Prompt: Test call for this compound, please: Fc1ccc(Br)cc1
Response: no

Prompt: Test call for this compound, please: CO[Si](OC)(OC)c1ccccc1
Response: no

Prompt: Test call for this compound, please: C=C(C)C(=O)OCCOC(=O)C(=C)C
Response: no

Prompt: Test call for this compound, please: NCCCCCCCCCCC(=O)O
Response: no

Prompt: Test call for this compound, please: CCCCCCCCCCO
Response: no

Prompt: Test call for this compound, please: C=C(C)C(=O)OCCCCCCCCCCCC
Response: no

Prompt: Test call for this compound, please: CCN(Cc1c(F)cccc1Cl)c1c([N+](=O)[O-])cc(C(F)(F)F)cc1[N+](=O)[O-]
Response: no

Prompt: Test call for this compound, please: CC(C)Nc1nc(N)nc(Cl)n1
Response: no

Prompt: Test call for this compound, please: CC/C=C/CCCCCCCCCCOC(C)=O
Response: no

Prompt: Test call for this compound, please: CCCCCCCC/C=C\CCCCCCCCO
Response: no

Prompt: Test call for this compound, please: O=C=NCCCCCCN=C=O
Response: no

###

PROCEDURE_DETAILS: qHTS for Inhibitors of the vitamin D receptor (VDR): Hit Validation using a Texas Red Assay (AID 602201)
CONDITIONS_USED: VDR coregulator binding, Texas Red fluorescence polarization, agonist-bound VDR ligand-binding domain; series mostly up to 57.1 µM
Results filed as inconclusive are left out. The source made the active and inactive calls. Calls follow the shape of the dose curve; as a rule, active = well fitted curve in the direction sought with a large enough effect; inconclusive = small, poorly fitted or top-dose-only effect, or another doubt; inactive = no such curve, though single readings can be large or run the other way.
# output must be one of true (1) for active, false (0) for inactive

Prompt: Test call for this molecule, please: Cc1ccc(CSC2=NS(=O)(=O)c3ccccc32)cc1
Response: true (1)

Prompt: Test call for this molecule, please: O=C(c1cccs1)c1no[n+]([O-])c1C(=O)c1cccs1
Response: true (1)

Prompt: Test call for this molecule, please: CC(=O)Nc1cccc(C(=O)/C=C/c2ccc(C)cc2)c1
Response: false (0)

Prompt: Test call for this molecule, please: c1ccc(OCc2nn3c(Cn4nnc5ccccc54)nnc3s2)cc1
Response: true (1)

Prompt: Test call for this molecule, please: Cc1cccc2c1N(CCCOc1ccccc1)C(=O)C2=O
Response: false (0)

Prompt: Test call for this molecule, please: O=C(Nc1nc(-c2ccccn2)cs1)c1cc(Cl)ccc1[N+](=O)[O-]
Response: false (0)

Prompt: Test call for this molecule, please: CCOC(=O)CS(=O)(=O)c1nc(-c2ccccc2)cc(C(F)(F)F)n1
Response: false (0)

Prompt: Test call for this molecule, please: COc1cc(/C=C2\C(=O)ON=C2c2ccccc2)cc(Br)c1O
Response: false (0)

Prompt: Test call for this molecule, please: COc1cccc(C(=O)C(C#N)=C(SC)SC)c1
Response: false (0)

Prompt: Test call for this molecule, please: COc1ccccc1N1C(=O)C=C(Sc2nc(C)cc(C)n2)C1=O
Response: true (1)

Prompt: Test call for this molecule, please: O=C(/C=C/c1ccc(Cl)c([N+](=O)[O-])c1)c1cccnc1
Response: true (1)

Prompt: Test call for this molecule, please: NC(=O)COc1ccc(C(=O)/C=C2/C(=O)Nc3ccccc32)cc1
Response: false (0)

Prompt: Test call for this molecule, please: CCCCN1C(=O)C(=Nc2cccc3cnccc23)c2ccccc21
Response: false (0)
